MEASUREMENT TARGET: KRas-mediated phosphorylation of ERK in MKN1 cells (Homo sapiens, UniProt P01116)
Construct: pERK HTRF read-out
Sequence (P01116 1-188 isoform P01116-2): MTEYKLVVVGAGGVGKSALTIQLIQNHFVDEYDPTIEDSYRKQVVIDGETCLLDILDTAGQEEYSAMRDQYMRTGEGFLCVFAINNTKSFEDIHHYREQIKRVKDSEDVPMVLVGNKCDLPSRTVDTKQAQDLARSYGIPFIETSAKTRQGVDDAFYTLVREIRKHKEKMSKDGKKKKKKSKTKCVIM
PROTOCOL: Inhibition of KRas-mediated phosphorylation of ERK (HTRF), MKN1 cells
Assay type: cell-based
STATED CONDITIONS: MKN1 cells (KRas WT); HTRF pERK; 3 h incubation
IC50: recorded values
The reply should contain only the number, in nM.

COMPOUND: CCc1c(F)ccc2cc(O)cc(-c3ncc4c(NCC5CC(C(=O)n6ccc(C)n6)C5)nc(OC[C@@]56CCCN5C[C@H](F)C6)nc4c3F)c12 (some centres unmarked)
U: nM
RECORDED MEASUREMENT: 325
//
COMPOUND: Cc1ccn(C(=O)CCCNc2cc(O[C@@H](C)[C@@H]3CCCN3C)nc(-c3noc([C@]4(C)CCCc5sc(N)c(C#N)c54)n3)n2)n1
U: nM
RECORDED MEASUREMENT: 651
//
COMPOUND: N#Cc1c(N)sc2c(F)ccc(-c3c(Cl)cc4c(N5CCC(C(=O)Oc6cccnc6)CC5)nc(OC[C@@]56CCCN5C[C@H](F)C6)nc4c3F)c12
U: nM
RECORDED MEASUREMENT: 318
//
COMPOUND: CCc1c(F)ccc2cc(O)cc(-c3ncc4c(N5CCCCC(C(=O)n6ccc(C)n6)C5)nc(OC[C@@]56CCCN5C[C@H](F)C6)nc4c3F)c12 (some centres unmarked)
U: nM
RECORDED MEASUREMENT: 12
//
COMPOUND: CC(C)C(=O)N(C)C(=O)C1CCN(c2nc(OC[C@@]34CCCN3C[C@H](F)C4)nc3c(F)c(-c4ccc(F)c5sc(N)c(C#N)c45)c(Cl)cc23)CC1
U: nM
RECORDED MEASUREMENT: 26

## Task Let me know recorded IC50 for Cc1ccn(C(=O)C2CCCN(c3nc(OC[C@@]45CCCN4C[C@H](F)C5)nc4c(F)c(-c5ccc(F)c6sc(N)c(C#N)c56)c(C(F)(F)F)cc34)CC2)n1 (some centres unmarked) , thanks.
## Result 62

## Task Let me know recorded IC50 for CN(C(=O)CCCN(C)c1nc(OC[C@@]23CCCN2C[C@H](F)C3)nc2c(F)c(-c3ccc(F)c4sc(N)c(C#N)c34)c(Cl)cc12)C(=O)c1ccn(C)n1 , thanks.
## Result 80

## Task Let me know recorded IC50 for CCc1c(F)ccc2cc(O)cc(-c3ncc4c(N5CCC(C(=O)N(C)C(=O)C(C)C)CC5)nc(OC[C@@]56CCCN5C[C@H](F)C6)nc4c3F)c12 , thanks.
## Result 622

----------
MEASUREMENT TARGET: KRas WT (Homo sapiens)
Construct: Biotinylated KRas (corresponding to amino acids 1-169, produced at Accelegan Inc.); biotin (biotinylated); purchased Accelegan Inc
Sequence (P01116 1-169 isoform P01116-2): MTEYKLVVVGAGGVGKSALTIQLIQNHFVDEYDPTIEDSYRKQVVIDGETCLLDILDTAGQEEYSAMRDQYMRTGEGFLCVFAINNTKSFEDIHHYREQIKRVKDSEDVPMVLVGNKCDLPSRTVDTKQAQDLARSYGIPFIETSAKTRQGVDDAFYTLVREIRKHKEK
PROTOCOL: KRas binding assay, TR-FRET displacement of Cy5 labelled tracer
STATED CONDITIONS: 60-minute incubation at room temperature, 1% DMSO, pH 7.5
IC50 vs 100 nM: less than gives label 1; not less than gives label 0.

COMPOUND: CCc1c(F)ccc2cc(O)cc(-c3ncc4c(N5CCCCC(C(=O)n6ccc(C)n6)CC5)nc(OC[C@@]56CCCN5C[C@H](F)C6)nc4c3F)c12 (stereo partly drawn)
MEASUREMENT TARGET: KRas WT (Homo sapiens)
ASSIGNED CLASS: label 1
//
COMPOUND: CN(C(=O)CCCN(C)c1nc(OC[C@@]23CCCN2C[C@H](F)C3)nc2c(F)c(-c3ccc(F)c4sc(N)c(C#N)c34)c(Cl)cc12)C(=O)c1cnn(C)c1
MEASUREMENT TARGET: KRas WT (Homo sapiens)
ASSIGNED CLASS: label 1
//
COMPOUND: COC(=O)CCCN(C)c1nc(OC[C@@]23CCCN2C[C@H](F)C3)nc2c(F)c(-c3ccc(F)c4sc(N)c(C#N)c34)c(Cl)cc12
MEASUREMENT TARGET: KRas WT (Homo sapiens)
ASSIGNED CLASS: label 1

## Task Would you kindly verify if IC50 of CCc1c(F)ccc2cc(O)cc(-c3ncc4c(N5C[C@H](C(=O)n6ccc(C)n6)[C@@H](C)C5)nc(OC[C@@]56CCCN5C[C@H](F)C6)nc4c3F)c12 is strictly less than 100 nM?
## Result label 0

## Task Would you kindly verify if IC50 of CCc1c(F)ccc2cc(O)cc(-c3ncc4c(N5CCC(C(=O)n6cc(C(C)(C)C)cn6)CC5)nc(OC[C@@]56CCCN5C[C@H](F)C6)nc4c3F)c12 is strictly less than 100 nM?
## Result label 0
